protocol_summary: Determination of toxicity, intravenous LD50 in mice
condition_info: mouse, in vivo, female NMRI mice, 7 days observation, 5 animals per dose, read-out: Toxicity LD50 administered intravenously to mice
quantity_kind: LD50 at 168 h

{"compound": "Cc1nn(C)c2c1N(C(=O)CN1CCN(C)CC1)c1ccccc1NC2=O [Compound 2]", "quantity_kind": "LD50 at 168 h", "result": "210 mg/kg"}

All figures here come from patent US4317823A.
